Measured Target: T1, human VEGF (hVEGF) (human, UniProt P15692 181-395)
T1 construct: also called VEGF-A
T1 sequence: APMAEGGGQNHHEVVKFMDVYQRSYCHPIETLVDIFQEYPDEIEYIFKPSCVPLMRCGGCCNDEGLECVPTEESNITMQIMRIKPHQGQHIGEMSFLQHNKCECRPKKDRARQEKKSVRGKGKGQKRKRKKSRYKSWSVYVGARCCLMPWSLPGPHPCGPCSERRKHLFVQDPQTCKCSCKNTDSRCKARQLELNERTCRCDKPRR
Procedure Text: SPR
Observation Type: kon (M⁻¹ s⁻¹)
Answers are plain numbers, in M⁻¹ s⁻¹.

Record G6.31 AAEE (LC-N94A.LC-F83A.HC-A40E.HC-T57E) (Fab, V domains shown, Fab; also called HC-A40E, HC-T57E, LC-F83A, LC-N94A) VH: EVQLVESGGGLVQPGGSLRLSCAASGFTISDYWIHWVRQEPGKGLEWVAGITPAGGYEYYADSVKGRFTISADTSKNTAYLQMNSLRAEDTAVYYCARFVFFLPYAMDYWGQGTLVTVSS VL: DIQMTQSPSSLSASVGDRVTITCRASQDVSTAVAWYQQKPGKAPKLLIYSASFLYSGVPSRFSGSGSGTDFTLTISSLQPEDAATYYCQQGYGAPFTFGQGTKVEIK . Reported kon: 1.27e+06
